Test system: HepG2-GM130-SQSTM1
Test: phenotypically active (imaging signature differs from DMSO and reproducible) at any of 0.3-9 uM (binary (1 = active, 0 = inactive)); higher = active
Settings: treatment time: 24 h
Outcome (select one): true (1) for active, false (0) for inactive

1) Oc1cc(O)cc(/C=C/c2ccc(O)c(O)c2)c1
false (0)
2) C[C@H](NC(=O)[C@@H](O)c1cc(F)cc(F)c1)C(=O)N[C@@H]1C(=O)N(C)c2ccccc2-c2ccccc21
false (0)

Please let me know the test result on file for `C[C@@H](CN1CCC(n2c(=O)[nH]c3cc(Cl)ccc32)CC1)NC(=O)c1ccc2ccccc2c1` . true (1)
